Data credit: ChEMBL document CHEMBL4609982

Item-by-item account of log10 EC50
# MEASUREMENT TARGET: Beta-1 adrenergic receptor (Homo sapiens)
# Sequence (P08588 whole entry): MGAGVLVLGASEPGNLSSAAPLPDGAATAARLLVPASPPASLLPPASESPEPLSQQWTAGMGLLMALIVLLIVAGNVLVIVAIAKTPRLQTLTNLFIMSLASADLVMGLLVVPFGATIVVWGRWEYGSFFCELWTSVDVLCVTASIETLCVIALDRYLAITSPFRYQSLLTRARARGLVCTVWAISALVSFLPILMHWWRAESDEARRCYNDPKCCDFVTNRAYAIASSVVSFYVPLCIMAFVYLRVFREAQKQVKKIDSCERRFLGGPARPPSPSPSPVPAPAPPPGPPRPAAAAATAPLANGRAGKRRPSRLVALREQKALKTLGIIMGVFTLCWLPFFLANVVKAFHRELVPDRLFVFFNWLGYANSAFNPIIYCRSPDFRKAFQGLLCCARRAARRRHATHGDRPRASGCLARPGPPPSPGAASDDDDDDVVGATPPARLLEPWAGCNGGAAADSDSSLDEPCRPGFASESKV
# TEST NAME: Agonist activity at human beta1 adrenoreceptor overexpressed in human HEK293 cells assessed as cAMP accumulation incubated for 60 mins by HTRF assay
Counter-ions that a name gives are not always drawn.
# values: log10(EC50), units nM

>  <COMPOUND>
COc1cccc(CCC(C)(C)NCC(O)c2cc(O)cc3c2OCC(=O)N3)c1 (configuration not stated)

>  <OUTCOME MEASURE>
log10 EC50

>  <EXPERIMENTAL VALUE>
1.09

$$$$
>  <COMPOUND>
CC(C)(CCc1cccc(O)c1)NC[C@H](O)c1cc(O)cc2c1OCC(=O)N2

>  <OUTCOME MEASURE>
log10 EC50

>  <EXPERIMENTAL VALUE>
1.56

$$$$
>  <COMPOUND>
CC(C)(CCc1ccccc1)NCC(O)c1cc(O)cc2c1OCC(=O)N2 (configuration not stated)

>  <OUTCOME MEASURE>
log10 EC50

>  <EXPERIMENTAL VALUE>
1.17

$$$$

Measured log10 EC50 of COc1ccccc1CCC(C)(C)NC[C@H](O)c1cc(O)cc2c1OCC(=O)N2 : 0.15

Query CC(C)(CCc1ccccc1)NC[C@H](O)c1cc(O)cc2c1OCC(=O)N2 yields log10 EC50 of 0.09

CC(C)(CCc1ccc(O)cc1)NCC(O)c1cc(O)cc2c1OCC(=O)N2 (configuration not stated) has a reported log10 EC50 of 1.46

Notebook: COc1ccc(CC(C)(C)NC[C@H](O)c2cc(O)cc3c2OCC(=O)N3)cc1 [OLODATEROL HYDROCHLORIDE] , log10 EC50 read as 1.44

Reported log10 EC50 for COc1ccc(CCC(C)(C)NC[C@H](O)c2cc(O)cc3c2OCC(=O)N3)cc1 was 0.91

The recorded log10 EC50 for entry CC(C)(CCc1cccc(O)c1)NCC(O)c1cc(O)cc2c1OCC(=O)N2 (configuration not stated) equals 0.62

Record summary for CC(C)(CCc1ccc(O)cc1)NC[C@H](O)c1cc(O)cc2c1OCC(=O)N2 : reported log10 EC50 = 0.73

The compound listed as COc1ccccc1CCC(C)(C)NCC(O)c1cc(O)cc2c1OCC(=O)N2 (configuration not stated) shows log10 EC50 equal to 0.59

Sure, the documented log10 EC50 for COc1cccc(CCC(C)(C)NC[C@H](O)c2cc(O)cc3c2OCC(=O)N3)c1 is 0.75
